Cited source for all entries: ChEMBL document CHEMBL1145573

Assay: Inhibition of IGFR
pIC50: −log10 of the molar value.

# Smiles input, Relation, pIC50
data = [
    ("O=C1NC(=O)c2ccc(Nc3ccc4[nH]ccc4c3)cc2/C1=C/Nc1ccc(CN2CCCCC2)cc1", "<", 5.00),
    ("COc1cccc(Nc2ccc3c(c2)/C(=C/Nc2ccccc2)C(=O)NC3=O)c1", "<", 5.00),
    ("Cc1cccc(Nc2ccc3c(c2)/C(=C/Nc2ccc(CN4CCCCC4)cc2)C(=O)NC3=O)c1", "<", 5.00),
    ("N#Cc1ccccc1Nc1ccc2c(c1)/C(=C/Nc1ccc(CN3CCCCC3)cc1)C(=O)NC2=O", "=", 5.38),
    ("CC(=O)c1ccc(Nc2ccc3c(c2)/C(=C/Nc2ccc(CN4CCCCC4)cc2)C(=O)NC3=O)cc1", "=", 5.23),
    ("N#Cc1ccc(Nc2ccc3c(c2)/C(=C/Nc2ccc(CN4CCCCC4)cc2)C(=O)NC3=O)cc1", "=", 5.88),
    ("COc1cccc(Nc2ccc3c(c2)/C(=C/Nc2ccc(CN(C)C)cc2)C(=O)NC3=O)c1", "=", 5.86),
    ("O=C1NC(=O)c2ccc(Br)cc2/C1=C/Nc1ccc(CN2CCCCC2)cc1", "=", 5.54),
    ("O=C1NC(=O)c2ccc(Nc3ccccc3Cl)cc2/C1=C/Nc1ccc(CN2CCCCC2)cc1", "=", 5.78),
]

###

Experiment: Ratio of IC50 for IR to IC50 for IGFR

# Compound, Ratio IC50
rows = [
    ("O=C1NC(=O)c2ccc(Nc3ccccc3)cc2/C1=C/Nc1ccc(CN2CCCCC2)cc1", 0.87),
    ("O=C1NC(=O)c2ccc(-c3ccoc3)cc2/C1=C/Nc1ccc(CN2CCCCC2)cc1", 0.75),
    ("CC1CN(c2ccc(N/C=C3\\C(=O)NC(=O)c4ccc(-c5ccoc5)cc43)cc2)CC(C)N1 (stereo not given)", 1),
    ("CN(C)Cc1ccc(N/C=C2\\C(=O)NC(=O)c3ccc(Nc4ccccc4)cc32)cc1", 0.62),
    ("CC(=O)c1cccc(Nc2ccc3c(c2)/C(=C/Nc2ccc(CN4CCCCC4)cc2)C(=O)NC3=O)c1", 0.72),
]

###

Recorded IC50, one value per entry.
Assay: Inhibition of IGFR
Measure name: IC50 (nM)

# Compound, Measure name, Relation, Measured result
rows = [
    ("COc1ccc(Nc2ccc3c(c2)/C(=C/Nc2ccc(CN4CCCCC4)cc2)C(=O)NC3=O)cc1", "IC50", "=", 971),
    ("CC(=O)c1cccc(Nc2ccc3c(c2)/C(=C/Nc2ccc(N4CC(C)NC(C)C4)cc2)C(=O)NC3=O)c1 (stereo not drawn)", "IC50", "=", 540),
    ("CC(=O)c1cccc(Nc2ccc3c(c2)/C(=C/Nc2ccc(N4CCN(C)CC4)cc2)C(=O)NC3=O)c1", "IC50", "=", 319),
    ("Cc1ccccc1Nc1ccc2c(c1)/C(=C/Nc1ccc(CN3CCCCC3)cc1)C(=O)NC2=O", "IC50", "=", 4140),
    ("CN(C)Cc1ccc(N/C=C2\\C(=O)NC(=O)c3ccc(Nc4ccccc4)cc32)cc1", "IC50", "=", 920),
    ("COc1cc(Nc2ccc3c(c2)/C(=C/Nc2ccc(CN4CCCCC4)cc2)C(=O)NC3=O)cc(C(F)(F)F)c1", "IC50", ">", 10000),
    ("O=C1NC(=O)c2ccc(Nc3cccc(C(F)(F)F)c3)cc2/C1=C/Nc1ccc(CN2CCCCC2)cc1", "IC50", ">", 10000),
    ("O=C1NC(=O)c2ccc(Nc3ccc4c(c3)OCO4)cc2/C1=C/Nc1ccc(CN2CCCCC2)cc1", "IC50", "=", 894),
]

###

Test: Ratio of IC50 for IR to IC50 for IGFR
Hi, to clarify the labels: True covers Ratio IC50 from 0.7 upward, False covers anything below 0.7.

# Molecule, Assigned label
measured = [
    ("CCN(CC)Cc1ccc(N/C=C2\\C(=O)NC(=O)c3ccc(Nc4ccc(C)cc4)cc32)cc1", "False"),
    ("COc1cccc(Nc2ccc3c(c2)/C(=C/Nc2ccc(CN(C)C)cc2)C(=O)NC3=O)c1", "False"),
    ("CC(=O)c1cccc(Nc2ccc3c(c2)/C(=C/Nc2ccc(N4CCN(C)CC4)cc2)C(=O)NC3=O)c1", "True"),
    ("Cc1ccc(Nc2ccc3c(c2)/C(=C/Nc2ccc(CN4CCCCC4)cc2)C(=O)NC3=O)cc1", "True"),
    ("CC(=O)c1cccc(Nc2ccc3c(c2)/C(=C/Nc2ccc(CN(C)C)cc2)C(=O)NC3=O)c1", "True"),
    ("CC(=O)c1cccc(Nc2ccc3c(c2)/C(=C/Nc2ccc(N4CC(C)NC(C)C4)cc2)C(=O)NC3=O)c1 (centres undefined)", "True"),
    ("CN(C)Cc1ccc(N/C=C2\\C(=O)NC(=O)c3ccc(Br)cc32)cc1", "False"),
    ("CN1CCN(c2ccc(N/C=C3\\C(=O)NC(=O)c4ccc(NS(=O)(=O)c5ccccc5)cc43)cc2)CC1", "True"),
]

###

Test: Inhibition of IGFR
pIC50: −log10 of the molar value.

# Compound, Relation, pIC50
records = [
    ("O=C1NC(=O)c2ccc(Br)cc2/C1=C/Nc1ccc(CN2CCCC2)cc1", "=", 5.62),
    ("Nc1cccc(Nc2ccc3c(c2)/C(=C/Nc2ccc(CN4CCCCC4)cc2)C(=O)NC3=O)c1", "<", 5.00),
    ("CC1CN(c2ccc(N/C=C3\\C(=O)NC(=O)c4ccc(-c5ccoc5)cc43)cc2)CC(C)N1 (centres undefined)", "=", 6.20),
    ("CN(C)Cc1ccc(N/C=C2\\C(=O)NC(=O)c3ccc(Br)cc32)cc1", "=", 5.14),
    ("O=C1NC(=O)c2ccc(Nc3ccc4c(c3)CCC4)cc2/C1=C/Nc1ccc(CN2CCCCC2)cc1", "=", 5.10),
    ("O=C1NC(=O)c2ccc(Nc3ccccc3)cc2/C1=C/Nc1ccc(CN2CCCCC2)cc1", "=", 6.34),
    ("CN(C)c1ccc(Nc2ccc3c(c2)/C(=C/Nc2ccc(CN4CCCCC4)cc2)C(=O)NC3=O)cc1", "<", 5.00),
    ("CC(=O)c1cccc(Nc2ccc3c(c2)/C(=C/Nc2ccc(CN4CCCCC4)cc2)C(=O)NC3=O)c1", "=", 6.36),
    ("COc1ccc(Nc2ccc3c(c2)/C(=C/Nc2ccc(CN(C)C)cc2)C(=O)NC3=O)cc1", "=", 6.25),
    ("CC(=O)c1cccc(Nc2ccc3c(c2)/C(=C/Nc2ccc(CN(C)C)cc2)C(=O)NC3=O)c1", "=", 6.05),
    ("O=C1NC(=O)c2ccc(-c3ccoc3)cc2/C1=C/Nc1ccc(CN2CCCCC2)cc1", "=", 6.15),
    ("O=C1NC(=O)c2ccc(Nc3cccc(Cl)c3)cc2/C1=C/Nc1ccccc1", "<", 5.00),
    ("O=C1NC(=O)c2ccc(Nc3cccc4ncccc34)cc2/C1=C/Nc1ccc(CN2CCCCC2)cc1", "=", 5.28),
    ("Cc1ccc(Nc2ccc3c(c2)/C(=C/Nc2ccc(CN4CCCCC4)cc2)C(=O)NC3=O)cc1", "=", 6.30),
    ("CCOC(=O)c1ccc(Nc2ccc3c(c2)/C(=C/Nc2ccc(CN4CCCCC4)cc2)C(=O)NC3=O)cc1", "<", 5.00),
    ("O=C1NC(=O)c2ccc(Nc3cccc(Cl)c3)cc2/C1=C/Nc1ccc(CN2CCCCC2)cc1", "=", 5.62),
    ("COc1ccccc1Nc1ccc2c(c1)/C(=C/Nc1ccc(CN3CCCCC3)cc1)C(=O)NC2=O", "=", 6.21),
    ("NC(=O)c1ccc(Nc2ccc3c(c2)/C(=C/Nc2ccc(CN4CCCCC4)cc2)C(=O)NC3=O)cc1", "=", 6.02),
    ("COc1cccc(Nc2ccc3c(c2)/C(=C/Nc2ccc(CN4CCCCC4)cc2)C(=O)NC3=O)c1", "=", 5.97),
    ("O=C1NC(=O)c2ccc(Nc3cccc(F)c3)cc2/C1=C/Nc1ccc(CN2CCCCC2)cc1", "=", 5.58),
    ("O=C1NC(=O)c2ccc(Nc3ccc(Cl)cc3)cc2/C1=C/Nc1ccc(CN2CCCCC2)cc1", "<", 5.00),
    ("CCN(CC)Cc1ccc(N/C=C2\\C(=O)NC(=O)c3ccc(Nc4ccc(C)cc4)cc32)cc1", "=", 5.94),
    ("N#Cc1cccc(Nc2ccc3c(c2)/C(=C/Nc2ccc(CN4CCCCC4)cc2)C(=O)NC3=O)c1", "=", 5.95),
    ("CN1CCN(c2ccc(N/C=C3\\C(=O)NC(=O)c4ccc(NS(=O)(=O)c5ccccc5)cc43)cc2)CC1", "=", 6.08),
]
